What ΔS was measured for each of the following?
Biological target: T1, γHV68 M11 residues 1-136 (murine γHV68), P89884
T1 chain: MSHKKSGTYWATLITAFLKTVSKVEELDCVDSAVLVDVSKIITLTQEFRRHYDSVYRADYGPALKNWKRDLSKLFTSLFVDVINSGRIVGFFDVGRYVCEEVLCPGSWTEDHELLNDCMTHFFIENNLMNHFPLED
Test: ITC, 25 °C

Here is how some binders turned out for ΔS.
Binder	Endpoint value
GSGTMENLSRRLKVTEDLFDIMSGQT (modifications not checked) [Beclin 1 BH3D-derived peptide G120E]	-90 J/K · mol
GSGTMENLSRRLAVTGDLFDIMSGQT (modifications not checked) [Beclin 1 BH3D-derived peptide K117A]	-113 J/K · mol
GSGTMENLSRRLKVTEALFDIMSGQT (modifications not checked) [Beclin 1 BH3D-derived G120E+D121A double mutant peptide]	-110 J/K · mol
GSGTMENLSRRLKVTGDLFDIMSGQT (modifications not checked) [Beclin 1 BH3D peptide, wild type]	-126 J/K · mol
GSGTMENASRRLKVTGDLFDIMSGQT (modifications not checked) [Beclin 1 BH3D-derived peptide L112A]	-56.1 J/K · mol

Please supply ΔS for each of the following items, keeping them in order.
1. GSGTMENLSRRAKVTGDLFDIMSGQT (modifications not checked) [Beclin 1 BH3D-derived peptide L116A]
2. GSGTMENLSRRLKVTGDLADIMSGQT (modifications not checked) [Beclin 1 BH3D-derived peptide F123A]

RESULT:
["-50.3 J/K · mol", "-97.8 J/K · mol"]
